Kindly supply the reported Mdr1a/1b (−/−) Permeability coefficient values for the records listed here.
- Test system: P-gp (Mdr1a/1b) in mouse intestinal segments
- test_summary: Ussing chamber intestinal permeability, ileal segments Mdr1a/1b (+/+) vs (−/−)
- details: P-gp knockout intestinal segments, mucosal to serosal, 50 μM, 180 min

Query for P-gp (Mdr1a/1b) in mouse intestinal segments: what Mdr1a/1b (−/−) Permeability coefficient does the record show for COc1ccc(C[C@H](N)C(=O)N[C@H]2[C@@H](O)[C@H](n3cnc4c(N(C)C)ncnc43)O[C@@H]2CO)cc1 [Puromycin, puromycin] ? 14.95 ± 2.33 cm/s (x10^−6)

Query for P-gp (Mdr1a/1b) in mouse intestinal segments: what Mdr1a/1b (−/−) Permeability coefficient does the record show for CC[C@H]1OC(=O)[C@H](C)[C@@H](O[C@H]2C[C@@](C)(OC)[C@@H](O)[C@H](C)O2)[C@H](C)[C@@H](O[C@@H]2O[C@H](C)C[C@H](N(C)C)[C@H]2O)[C@](C)(O)C[C@@H](C)C(=O)[C@H](C)[C@@H](O)[C@]1(C)O [Erythromycin, erythromycin] ? 13.70 ± 4.54 cm/s (x10^−6)

Query for P-gp (Mdr1a/1b) in mouse intestinal segments: what Mdr1a/1b (−/−) Permeability coefficient does the record show for COc1cc2c(c(OC)c1OC)-c1ccc(OC)c(=O)cc1[C@@H](NC(C)=O)CC2 [Colchicine, colchicine] ? 14.95 ± 3.18 cm/s (x10^−6)

Query for P-gp (Mdr1a/1b) in mouse intestinal segments: what Mdr1a/1b (−/−) Permeability coefficient does the record show for CCc1cc2c(cc1CC)CC(NC[C@H](O)c1ccc(O)c3[nH]c(=O)ccc13)C2 [Indacaterol, indacaterol] ? 29.22 ± 4.40 cm/s (x10^−6)

Query for P-gp (Mdr1a/1b) in mouse intestinal segments: what Mdr1a/1b (−/−) Permeability coefficient does the record show for C[C@H]1O[C@@H](O[C@H]2[C@@H](O)C[C@H](O[C@H]3[C@@H](O)C[C@H](O[C@H]4CC[C@@]5(C)[C@H](CC[C@@H]6[C@@H]5C[C@@H](O)[C@]5(C)[C@@H](C7=CC(=O)OC7)CC[C@]65O)C4)O[C@@H]3C)O[C@@H]2C)C[C@H](O)[C@@H]1O [Digoxin, digoxin] ? 20.94 ± 2.94 cm/s (x10^−6)

---

- test_summary: Multi-lamellar liposome vesicle (MLV) partitioning
- Assay type: physicochemical
- details: (C0−CS)/C0, 1 μg/mL, 4 h, 37°C, PBS pH 7.4
- Description: MLVs were formed as previously described ([20]). Briefly, solutions of 8 mg phosphatidylcholine and 2 mg phosphatidylglycerol in 10 mL chloroform were completely dried to a lipid film (rotation under vacuum). These preparations were then incubated at 37°C for 4 h under shaking conditions to allow equilibration of compound between the lipid and aqueous fractions. […] Partitioning into the MLVs was determined according to Eq. 3:3 MLVpartitioning=C0−CS/C0 […]
Kindly supply the reported MLV Partitioning values for the records listed here.
In your answer, state the number alone without any accompanying words.

Which MLV Partitioning value belongs to CCc1cc2c(cc1CC)CC(NC[C@H](O)c1ccc(O)c3[nH]c(=O)ccc13)C2 ? 0.92

Which MLV Partitioning value belongs to CN1CCC[C@@H]1Cc1c[nH]c2ccc(CCS(=O)(=O)c3ccccc3)cc12 ? 0.94

Which MLV Partitioning value belongs to O=c1[nH]c2ccccc2n1CCCN1CCC(n2c(=O)[nH]c3cc(Cl)ccc32)CC1 ? 0.92

Which MLV Partitioning value belongs to CC[C@@]1([C@@H]2O[C@@H]([C@H]3O[C@@](O)(CO)[C@H](C)C[C@@H]3C)C[C@@H]2C)CC[C@H]([C@]2(C)CC[C@]3(C[C@H](O)[C@@H](C)[C@@H]([C@@H](C)[C@@H](OC)[C@H](C)C(=O)O)O3)O2)O1 ? 0.68
